target: Indoleamine 2,3-dioxygenase 1 (Homo sapiens); experiment: Inhibition of human IDO1 expressed in Escherichia coli Rosetta measured after 1 hr by microplate reader analysis
Sequence (P14902 whole entry): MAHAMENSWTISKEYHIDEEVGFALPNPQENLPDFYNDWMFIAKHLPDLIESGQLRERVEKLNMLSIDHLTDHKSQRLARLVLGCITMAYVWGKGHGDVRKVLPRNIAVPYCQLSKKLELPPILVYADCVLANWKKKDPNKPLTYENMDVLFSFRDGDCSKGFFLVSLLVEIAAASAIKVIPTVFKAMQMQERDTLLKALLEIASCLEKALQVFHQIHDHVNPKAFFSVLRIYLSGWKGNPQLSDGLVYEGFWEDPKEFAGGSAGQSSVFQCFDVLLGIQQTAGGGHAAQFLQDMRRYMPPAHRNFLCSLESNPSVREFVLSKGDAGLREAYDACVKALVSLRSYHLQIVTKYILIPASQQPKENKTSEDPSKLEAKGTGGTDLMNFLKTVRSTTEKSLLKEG
readout: IC50 (nM)

Solved entries (count: 6):
Cc1cc(N2CCC(C3c4c(F)cccc4-c4cncn43)CC2)ccc1-c1cnn(C)c1 (stereo unspecified)	14
Fc1cccc2c1C(C1CCN(c3nc4ccccc4s3)CC1)n1cncc1-2 (stereo unspecified)	19
Fc1cccc2c1C(C1CCOCC1)n1cncc1-2 (stereo unspecified)	969
Fc1cccc2c1C(C1CCN(c3ccc(-c4cccnc4)cc3)CC1)n1cncc1-2 (stereo unspecified)	70
Fc1cccc2c1C(C1CCCCC1)n1cncc1-2 (stereo unspecified)	108
Fc1cccc2c1C(C1CCN(c3ccc(-c4ccncc4)cc3)CC1)n1cncc1-2 (stereo unspecified)	33

P = Cn1ccc2ccc(N3CCC(C4c5c(F)cccc5-c5cncn54)CC3)cc21 (stereo unspecified)
Q = Fc1cccc2c1C(C1CCCC1)n1cncc1-2 (stereo unspecified)
R = Fc1cccc2c1C(C1CCN(c3nccs3)CC1)n1cncc1-2 (stereo unspecified)
S = Fc1cccc2c1C(c1ccccc1)n1cncc1-2 (stereo unspecified)
Sort low-to-high on IC50, please. Answer by listing the labels in the requested order.
P, R, Q, S
